- System: A. baumannii CDC-0083
- protocol_text: microbe, parasite or virus in culture
- Type: cell-based
- test_conditions: Acinetobacter baumannii, CDC0083, read-out: MIC, A. baumannii CDC-0083
Recorded MIC by entry

# compound, MIC
records = [
    ("O=C(NCCCN1CCN(C(=O)NC(C(=O)N[C@H]2Cc3ccc(F)c(C(=O)O)c3OB2O)c2cc(F)c(O)c(O)c2Cl)C(=O)C1=O)c1ccc(O)cc1 (some centres unmarked)", "< 1 µg/mL"),
    ("O=C(NCCCN1CCN(C(=O)NC(C(=O)N[C@H]2Cc3ccc(F)c(C(=O)O)c3OB2O)c2cc(F)c(O)c(O)c2Cl)C(=O)C1=O)c1cccc(O)c1 (some centres unmarked)", "< 1 µg/mL"),
    ("O=C(NCCCN1CCN(C(=O)NC(C(=O)N[C@H]2Cc3ccc(F)c(C(=O)O)c3OB2O)c2cc(F)c(O)c(O)c2Cl)C(=O)C1=O)c1c(F)cncc1Cl (some centres unmarked)", "2 to 4 µg/mL"),
    ("O=C(O)c1c(F)ccc2c1OB(O)[C@@H](NC(=O)[C@@H](NC(=O)N1CCN(Cc3ccc(O)c(O)c3Cl)C(=O)C1=O)c1ccc(P(=O)(O)O)cc1)C2 (single isomer, unassigned)", "8 to 16 µg/mL"),
    ("O=C(CN1CCN(C(=O)NC(C(=O)N[C@H]2Cc3ccc(F)c(C(=O)O)c3OB2O)c2cc(F)c(O)c(O)c2Cl)C(=O)C1=O)NCc1ccccc1 (some centres unmarked)", "> 128 µg/mL"),
]

* * *

Recorded MIC by entry
- System: N. gonorrhoeae CDC-0197
- protocol_text: Liquid broth MIC in Fastidious broth
- test_conditions: Neisseria gonorrhoeae, CDC0197, read-out: Minimum Inhibitory Concentration (MIC), N. gonorrhoeae CDC-0197

# compound, tested_target, MIC
records = [
    ("O=C(NCCCN1CCN(C(=O)NC(C(=O)N[C@H]2Cc3ccc(F)c(C(=O)O)c3OB2O)c2cc(F)c(O)c(O)c2Cl)C(=O)C1=O)c1ccc(O)cc1 (some centres unmarked)", "N. gonorrhoeae CDC-0197", "16 to 32 µg/mL"),
    ("CN(CCN1CCN(C(=O)NC(C(=O)N[C@H]2Cc3ccc(F)c(C(=O)O)c3OB2O)c2cc(F)c(O)c(O)c2Cl)C(=O)C1=O)S(=O)(=O)c1cccc(C(N)=O)c1 (some centres unmarked)", "N. gonorrhoeae CDC-0197", "> 64 µg/mL"),
    ("CN1CCC[C@H]1C(=O)NC(C(=O)N[C@H]1Cc2cccc(C(=O)O)c2OB1O)c1ccc(P(=O)(O)O)cc1 (some centres unmarked)", "N. gonorrhoeae CDC-0197", "16 to 32 µg/mL"),
    ("O=C(O)c1cccc2c1OB(O)[C@@H](NC(=O)C(NC(=O)C1CCCCC1)c1ccc(P(=O)(O)O)cc1)C2 (some centres unmarked)", "N. gonorrhoeae CDC-0197", "16 to 32 µg/mL"),
    ("CS(=O)(=O)N1CCC[C@H]1C(=O)N[C@@H](C(=O)N[C@H]1Cc2cccc(C(=O)O)c2OB1O)c1ccc(P(=O)(O)O)cc1", "N. gonorrhoeae CDC-0197", "1 to 2 µg/mL"),
]

* * *

Recorded MIC by entry
- Test system: N. gonorrhoeae WHO Z
- protocol_text: Liquid broth MIC in Fastidious broth
- test_conditions: Neisseria gonorrhoeae, read-out: Minimum Inhibitory Concentration (MIC), N. gonorrhoeae WHO Z
endpoint_label: MIC

# compound, tested_target, endpoint_label, measurement
data = [
    ("O=C(NCCN1CCN(C(=O)NC(C(=O)N[C@H]2Cc3ccc(F)c(C(=O)O)c3OB2O)c2cc(F)c(O)c(O)c2Cl)C(=O)C1=O)Nc1ccc(O)cc1 (stereo partly drawn)", "N. gonorrhoeae WHO Z", "MIC", "16 to 32 µg/mL"),
    ("O=C(O)c1cccc2c1OB(O)[C@@H](NC(=O)[C@@H](NC(=O)c1cnc3n(c1=O)CCS3)c1ccc(P(=O)(O)O)cc1)C2 (single isomer, unassigned)", "N. gonorrhoeae WHO Z", "MIC", "16 to 32 µg/mL"),
    ("N[C@@H](C(=O)N[C@H]1Cc2cccc(C(=O)O)c2OB1O)c1ccc(P(=O)(O)O)cc1 (single isomer, unassigned)", "N. gonorrhoeae WHO Z", "MIC", "> 64 µg/mL"),
    ("CS(=O)(=O)N1CCC[C@H]1C(=O)N[C@@H](C(=O)N[C@H]1Cc2cccc(C(=O)O)c2OB1O)c1ccc(P(=O)(O)O)cc1", "N. gonorrhoeae WHO Z", "MIC", "1 to 2 µg/mL"),
    ("O=C(NCCCN1CCN(C(=O)NC(C(=O)N[C@H]2Cc3ccc(F)c(C(=O)O)c3OB2O)c2cc(F)c(O)c(O)c2Cl)C(=O)C1=O)Nc1cccc(O)c1 (stereo partly drawn)", "N. gonorrhoeae WHO Z", "MIC", "16 to 32 µg/mL"),
    ("O=C(O)c1cccc2c1OB(O)[C@@H](NC(=O)C(NC(=O)C(F)(F)F)c1ccc(P(=O)(O)O)cc1)C2 (stereo partly drawn)", "N. gonorrhoeae WHO Z", "MIC", "16 to 32 µg/mL"),
]
